# method.summary: yeast display, Sf9 membrane polyspecificity reagent, FACS + sequencing; frameworks hold sequencing errors
reported.endpoint: polyreactivity (PSR sort gate)

QVQLVESGGGLVQAGGSLRLSCDASGSIFAKNAMGWYRQAPGKERELVAAIDLNGGSTYYADSVKGRFTISRDTAKNTVYLQMNILKPEDTAVYYCDVYYGHSCVIRSSPEYDSWGQGTQVTVSS    low polyreactivity
QVQLVESGGGLVQAGGSLRLSCAASGRTFGKYAMGWYIQAPGKEREFVAAISRSGGNTYYADSVKGRFTISRDNAKNTVYLQMNSLKPEDTAVYYCARGLSTYVLSHGLEYRTYYYWGQGTQVTVTS    high polyreactivity
QVQLVESGGGLVQAGGSLRLSCAASGFIFADYAMGWYRPAPGKERELVAAISSGGRTKYADSVKGRFTISRDNAKNTVYLQMNSLIPDDTAVYYCAKALRRVPRIQAYPVPQGDYWGHGTQVTVSS    high polyreactivity
QVQLVESGGGLVQAGGSLRLSCAASGYTFQWYDMGWYRQAPGKERELVASISWRGGSTYYADSVKGRFSISRDNATITVSLQMNSLKPEDTAVYYCAASLWPDYEYDYWGQGTQVTVSS    low polyreactivity
QVQLEESGGGLVQAGGSLRLICAASGGTFSYNAMGWYRQAPGKERELVAAISWSGTRTYYADSVKGRFTISRDNEKNTVYLQMNSLKPEDTAVYYCNADSDTPRYDYWGLGTQVTVSS    low polyreactivity
QVHLVESGGGLFQAVLSLRLSCAASGFIFQRYPMGWYRQAPGKESELVAAISSGGGTNYADSVKGRFTISRDNAKKTVYLQLNSLIPEDTAVYYCARPYYVYSQSSDYWGQGTQVTVSS    low polyreactivity

State recorded polyreactivity (PSR sort gate) for all listed sequences.
1. QVQLVESGGGLVQAGGSLRLSCAASGLTFYLYVMGWYRQAPGKERELVAAISRRGGTTYYADSVKGRFTISRDNAKNTVYLQMNSLKPEDTAVYYCAADFFAGTQRTFDYWGQGTQVTVSS
2. QVQLVESGGGLVQAGGSLRLSCAASGYIFIGYAMGWYRQAPGKERELVATITSGGSTNYADSVKGRFTISRDNAKNTVYLQLHSLNPEDTAVDYCAAGRGRYFYSWRYLYAIFDYWGQGTQVTVSS
3. QVQLVESVGGLVQAGGSLRLSCAASGRIFGPYVMGWYRQAPGKERELVAAISTSGTSTYYADSVKGRFTISRDNAKNTDYLPMNSLKPEDTAVYYCAIRSGARHRLMDYWGQGTQVTVSS
4. QVQLVESGVGLVQAGGSLRLSCAASGRNFGTNAIGWYRPAPGKERELVAAISSSGGSTYYADSVKGRFTISRDNAKNTVYLQMNSLKPEDTAVYYCAKGWHRGVGFGYWGQGTEVTVSS
5. QVQLVESGGGLVQAGGSLRLSCAASGFIFSPYAMGWYRQAPGKERELVATITWSGGRTYYADSVKGRFTISRDNAKNTVYLQMNSLKPEDTAVYYCNADGYQPALNKDFGYWGQGTQVTVSS

[A]
high polyreactivity
low polyreactivity
low polyreactivity
high polyreactivity
low polyreactivity

* * *

# method.summary: yeast display, Sf9 membrane polyspecificity reagent, FACS + sequencing; frameworks hold sequencing errors
reported.endpoint: polyreactivity (PSR sort gate)

QVQLVESGGGLVQAGGSLRLSCAASGYILQINAMGWYRQAPGKERELVAAISISGGNTYYADSVKGRFTISRDNAKNTVYLQMNSLKPEDTAVYYCNAGGPLQPYDYWGQGTQVTVSS    low polyreactivity
QVQLVESGGGLVQAGGSLRLSCAASGRILSYYAMGWYRQAPGKERELVAVIRRGASTYADSVKGRFTISRDNAKNTVYLQMNSLKPEDTAVYYCNADRVVGLSATKYGYWGQGTQVTVSS    low polyreactivity
QVQLVESGGGLVQAGGSLRLSCAASGSTFRFNAMGWYRQAPGKERELVAVIRWRGGTTYYADSVKGRFTISRDNAKNTVYLQMKSLKPEDTAVYYCNADYWGQGTQVTVSS    high polyreactivity
QVQLVESGGGLVQAGGSLRLSCAASGRIFGRYAMGWYRQAPGKERELVAGITGSSGTTYYADSVKGRFTISLDNAKNTVYLQMNSLKPEDTAVYYCAVETYWHARSHDYWGQGTQVTVSS    low polyreactivity

State recorded polyreactivity (PSR sort gate) for all listed sequences.
1. QVQLVESGGGLVQAGGSLRLSCAASGSTFVRYAMGWYRQEPGKERELVAAISKSGGSTYYADSVKGRFTISRDNAKNTVYLQMNSLKPEDTAVYYCNADVYKNSKFRIMGYWGQGTQVTVSS
2. QVQLVESGGGLVQAGGSLRLSCAASGGTFVYYTMGWYRQAPGKERELVAAISGRGGRTYYADSVKGRFTISRDNAKNTVYLQMNSLKPEDTAVYYCTATQIGPYYLPFDSWGQGTQVTVSS

[A]
1. low polyreactivity
2. high polyreactivity
